Source listed as ChEMBL document CHEMBL5724914.

Experiment: The drug is tested on WLS-310 corresponding to human gut metagenome with ENA study accession number: PRJEB37062 and ENA sample accession number: ERS12561785 for biotransformation under anaerobic condition. The drug concentrations were measured over 9 timepoints collected between 0 and 24 hours of incubation by liquid-chromatography-coupled mass spectrometry (LC–MS); further: call rule not given here
Conditions: 2 µM
valueKind: Bacterial Biotransformation

# count of solved cases: 5
| molecule | Bacterial Biotransformation |
| --- | --- |
| CN1CCc2cccc3c2[C@H]1Cc1ccc(O)c(O)c1-3 | Compound NOT metabolized |
| Nc1nc2ccc(OC(F)(F)F)cc2s1 | Compound metabolized |
| N#Cc1ccc(C(c2ccc(C#N)cc2)n2cncn2)cc1 | Compound NOT metabolized |
| CC(=O)CC(c1ccccc1)c1c(O)c2ccccc2oc1=O (stereo not given) | Compound metabolized |
| CNCCC(Oc1ccc(C(F)(F)F)cc1)c1ccccc1 (stereo not given) | Compound NOT metabolized |

The molecule listed as COc1ccc2c(c1OC)C(=O)O[C@@H]2[C@H]1c2c(cc3c(c2OC)OCO3)CCN1C has a reported Bacterial Biotransformation of Compound metabolized

Per the records, this molecule ( CN1C(C(=O)Nc2ccccn2)=C(O)c2sccc2S1(=O)=O ) has Bacterial Biotransformation equal to Compound NOT metabolized

Measured Bacterial Biotransformation of CC(C)(C#N)c1cc(Cn2cncn2)cc(C(C)(C)C#N)c1 : Compound metabolized

The molecule listed as CCN(CC)CCOC(=O)C(Cc1cccc2ccccc12)CC1CCCO1.O=C(O)C(=O)O (stereo not given) [NAFRONYL OXALATE] has a reported Bacterial Biotransformation of Compound metabolized

Reported Bacterial Biotransformation for COC1=CC(=O)C[C@@H](C)[C@]12Oc1c(Cl)c(OC)cc(OC)c1C2=O was Compound metabolized

----------
Assay: The drug is tested on Z-011 corresponding to mouse gut metagenome with ENA study accession number: PRJEB37062 and ENA sample accession number: ERS12561811 for biotransformation under anaerobic condition. The drug concentrations were measured over 9 timepoints collected between 0 and 24 hours of incubation by liquid-chromatography-coupled mass spectrometry (LC–MS)
Conditions: 2 µM
valueKind: Bacterial Biotransformation

Solved cases (5 shown):
| molecule | recordedMeasurement |
| --- | --- |
| CC(O)(CS(=O)(=O)c1ccc(F)cc1)C(=O)Nc1ccc(C#N)c(C(F)(F)F)c1 (stereo not drawn) [BICALUTAMIDE] | Compound NOT metabolized |
| Nc1c2c(nc3ccccc13)CCCC2 [TACRINE] | Compound NOT metabolized |
| CC(C(=O)O)c1ccc2c(c1)Cc1cccnc1O2 (stereo not drawn) [PRANOPROFEN] | Compound metabolized |
| CCCc1nn(C)c2c(=O)[nH]c(-c3cc(S(=O)(=O)N4CCN(C)CC4)ccc3OCC)nc12.O=C(O)CC(O)(CC(=O)O)C(=O)O [SILDENAFIL CITRATE] | Compound NOT metabolized |
| CCOC(=O)[C@H](CCc1ccccc1)N[C@@H](C)C(=O)N1[C@H](C(=O)O)C[C@@H]2CCC[C@@H]21 | Compound NOT metabolized |

Documented Bacterial Biotransformation of NS(=O)(=O)c1cc2c(cc1Cl)N=C(CSCc1ccccc1)NS2(=O)=O [BENZTHIAZIDE] : Compound NOT metabolized

Measured Bacterial Biotransformation, CCCCC(=O)N(Cc1ccc(-c2ccccc2-c2nnn[nH]2)cc1)[C@H](C(=O)O)C(C)C : Compound NOT metabolized

----------
Assay: The drug is tested on Z-027 corresponding to metagenome with ENA study accession number: PRJEB37062 and ENA sample accession number: ERS12561826 for biotransformation under anaerobic condition. The drug concentrations were measured over 9 timepoints collected between 0 and 24 hours of incubation by liquid-chromatography-coupled mass spectrometry (LC–MS)
Settings: 2 µM
valueKind: Bacterial Biotransformation

| compound | recordedMeasurement |
| --- | --- |
| CCCC1O[C@@H]2C[C@H]3[C@@H]4CCC5=CC(=O)C=C[C@]5(C)[C@H]4[C@@H](O)C[C@]3(C)[C@]2(C(=O)CO)O1 (stereo partly drawn) [BUDESONIDE] | Compound NOT metabolized |
| CC(C)c1nc(CN(C)C(=O)N[C@H](C(=O)N[C@@H](Cc2ccccc2)C[C@H](O)[C@H](Cc2ccccc2)NC(=O)OCc2cncs2)C(C)C)cs1 | Compound metabolized |
| Cc1ccnc2c1NC(=O)c1cccnc1N2C1CC1 | Compound NOT metabolized |
| CCN(CC)CCOC(=O)C(Cc1cccc2ccccc12)CC1CCCO1.O=C(O)C(=O)O (stereo not drawn) [NAFRONYL OXALATE] | Compound NOT metabolized |
| NC(CO)(CO)CO.O=C(c1ccccc1)c1ccc2n1CCC2C(=O)O (stereo not drawn) | Compound metabolized |
| OCCN1CCN(CCCN2c3ccccc3Sc3ccc(C(F)(F)F)cc32)CC1 | Compound NOT metabolized |
| COC1=CC(=O)C[C@@H](C)[C@]12Oc1c(Cl)c(OC)cc(OC)c1C2=O | Compound metabolized |

Now let's try a different one.
Record Cc1cc2c(cc1S(N)(=O)=O)S(=O)(=O)CCC2 , field Bacterial Biotransformation: Compound NOT metabolized

----------
Experiment: The drug is tested on WLS-038 corresponding to human gut metagenome with ENA study accession number: PRJEB37062 and ENA sample accession number: ERS12561745 for biotransformation under anaerobic condition. The drug concentrations were measured over 9 timepoints collected between 0 and 24 hours of incubation by liquid-chromatography-coupled mass spectrometry (LC–MS)
Settings: 2 µM
valueKind: Bacterial Biotransformation

# count of solved cases: 10
| compound | valueKind | recordedMeasurement |
| --- | --- | --- |
| CCCCc1nc(Cl)c(CO)n1Cc1ccc(-c2ccccc2-c2nn[nH]n2)cc1 | Bacterial Biotransformation | Compound NOT metabolized |
| OC(CCN1CCCCC1)(c1ccccc1)C1CC2C=CC1C2 (configuration not stated) | Bacterial Biotransformation | Compound NOT metabolized |
| CCN1CCCC1CNC(=O)c1cc(S(N)(=O)=O)ccc1OC (configuration not stated) [SULPIRIDE] | Bacterial Biotransformation | Compound NOT metabolized |
| C#C[C@]1(O)CC[C@H]2[C@@H]3CCC4=Cc5oncc5C[C@]4(C)[C@H]3CC[C@@]21C | Bacterial Biotransformation | Compound metabolized |
| CCCC(=O)Nc1ccc(OCC(O)CNC(C)C)c(C(C)=O)c1 (configuration not stated) | Bacterial Biotransformation | Compound NOT metabolized |
| CC(C)c1c(C(=O)Nc2ccccc2)c(-c2ccccc2)c(-c2ccc(F)cc2)n1CC[C@@H](O)C[C@@H](O)CC(=O)O | Bacterial Biotransformation | Compound metabolized |
| CCN(CC)CCOC(=O)C(Cc1cccc2ccccc12)CC1CCCO1.O=C(O)C(=O)O (configuration not stated) [NAFRONYL OXALATE] | Bacterial Biotransformation | Compound metabolized |
| Cc1cc2c(cc1S(N)(=O)=O)S(=O)(=O)CCC2 | Bacterial Biotransformation | Compound NOT metabolized |
| CCN(CC)CCNC(C(=O)OCCC(C)C)c1ccccc1.Cl.Cl (configuration not stated) | Bacterial Biotransformation | Compound NOT metabolized |
| COc1cc2nc(N(C)CCCNC(=O)C3CCCO3)nc(N)c2cc1OC (configuration not stated) | Bacterial Biotransformation | Compound NOT metabolized |

// Bacterial Biotransformation value for CN1CCOC(c2ccccc2)c2ccccc2C1 (configuration not stated) : Compound NOT metabolized

Entry O=c1[nH]c2ccccc2n1C1CCN(CCCC(c2ccc(F)cc2)c2ccc(F)cc2)CC1 [PIMOZIDE] — recorded Bacterial Biotransformation = Compound metabolized

----------
Experiment: The drug is tested on WLS-082 corresponding to human gut metagenome with ENA study accession number: PRJEB37062 and ENA sample accession number: ERS12561751 for biotransformation under anaerobic condition. The drug concentrations were measured over 9 timepoints collected between 0 and 24 hours of incubation by liquid-chromatography-coupled mass spectrometry (LC–MS)
Settings: 2 µM
valueKind: Bacterial Biotransformation

| compound | recordedMeasurement |
| --- | --- |
| CC(C)(C(=O)O)c1ccc(C(O)CCCN2CCC(C(O)(c3ccccc3)c3ccccc3)CC2)cc1 (centres undefined) [FEXOFENADINE] | Compound NOT metabolized |
| CC(C)c1c(C(=O)Nc2ccccc2)c(-c2ccccc2)c(-c2ccc(F)cc2)n1CC[C@@H](O)C[C@@H](O)CC(=O)O | Compound metabolized |
| CCN(CC)CCNC(=O)c1cc(Cl)c(N)cc1OC [METOCLOPRAMIDE] | Compound NOT metabolized |
| CCCc1nc2c(C)cc(-c3nc4ccccc4n3C)cc2n1Cc1ccc(-c2ccccc2C(=O)O)cc1 | Compound metabolized |

----------
Settings: human gut metagenome, 24 h, 2 µM
valueKind: Bacterial Biotransformation

Illustrative cases are given below, each with its answer.
| molecule | recordedMeasurement |
| --- | --- |
| O=C(O)COCCN1CCN(C(c2ccccc2)c2ccc(Cl)cc2)CC1 (centres undefined) [CETIRIZINE] | Compound metabolized |
| COc1ccc2c3c1O[C@H]1C[C@@H](O)C=C[C@@]31CCN(C)C2 [GALANTAMINE] | Compound NOT metabolized |
| C=CCN1CC[C@]23c4c5ccc(O)c4O[C@H]2C(=O)CC[C@@]3(O)[C@H]1C5 [NALOXONE] | Compound NOT metabolized |
| CCC(COC(=O)c1cc(OC)c(OC)c(OC)c1)(c1ccccc1)N(C)C.O=C(O)/C=C\C(=O)O (centres undefined) | Compound NOT metabolized |
| Clc1ccc(Cn2c(CN3CCCC3)nc3ccccc32)cc1 [CLEMIZOLE] | Compound NOT metabolized |

CN(C)CC(c1ccc(O)cc1)C1(O)CCCCC1.O=C(O)CCC(=O)O (centres undefined) [DESVENLAFAXINE SUCCINATE] has a reported Bacterial Biotransformation of Compound NOT metabolized

Summary for this molecule, CNC(=C[N+](=O)[O-])NCCSCc1ccc(CN(C)C)o1 [RANITIDINE] : Bacterial Biotransformation is Compound NOT metabolized
